experiment: Psilocybin and psilocin plasma pharmacokinetics after s.c. psilocybin; format: in vivo, rats; conditions: rat, sc; psilocin in plasma after psilocybin 0.1 mg/kg s.c., rats; read-out: AUC0-tlast, Mean
quantity.kind: AUC(0-t) (ng·h/mL)
# number only, unit ng·h/mL dropped from output

Exercise: Return the recorded AUC(0-t) value; entry: CN(C)CCc1c[nH]c2cccc(O)c12 [psilocin, 4-hydroxy-N,N-dimethyltryptamine]
Solution: 12.5
